target: HIV-1 Env of isolate 92WR009 (HIV-1); assay: cell-based or functional assay
Task for the reader: assign each of the following binders its reported IC50 (µg/mL), pseudovirus neutralization.

Sample records with IC50 (µg/mL), pseudovirus neutralization:
{"columns": ["BINDER", "IC50 (µg/mL), pseudovirus neutralization"],
 "data": [
  ["PGT-127 (antibody, V domains shown) VH: QPQLQESGPGLVEASETLSLTCTVSGDSTGRCNYFWGWVRQPPGKGLEWIGSLSHCRSYYNTDWTYHNPSLKSRLTISLDTPKNQVFLRLTSVTAADTATYYCARFGGEVLVYRDWPKPAWVDLWGRGTLVVTVS VL: QSALTQPPSASGSPGQSITISCTGTSNNFVSWYQQYPGKAPKLVIYEVNKRPSGVPDRFSGSKSGSTASLTVSGLQADDEGVYYCSSLVGNWDVIFGGGTKLTVL", "> 50 µg/mL"],
  ["PGT-123 (antibody, V domains shown) VH: QLHLQESGPGLVKPPETLSLTCSVSGASINDAYWSWIRQSPGKRPEWVGYVHHSGDTNYNPSLKRRVTFSLDTAKNEVSLKLVDLTAADSATYFCARALHGKRIYGIVALGELFTYFYMDVWGKGTAVTVSS VL: SSMSVSPGETAKISCGKESIGSRAVQWYQQKPGQPPSLIIYNNQDRPAGVPERFSASPDFRPGTTATLTITNVDAEDEADYYCHIYDARGGTNWVFDRGTTLTVL", "15.7 µg/mL"],
  ["PGT-126 (antibody, V domains shown) VH: QPQLQESGPGLVEASETLSLTCTVSGDSTAACDYFWGWVRQPPGKGLEWIGGLSHCAGYYNTGWTYHNPSLKSRLTISLDTPKNQVFLKLNSVTAADTAIYYCARFDGEVLVYHDWPKPAWVDLWGRGTLVTVSS VL: QSALTQPPSASGSPGQSISISCTGTSNRFVSWYQQHPGKAPKLVIYGVNKRPSGVPDRFSGSKSGNTASLTVSGLQTDDEAVYYCSSLVGNWDVIFGGGTKLTVL", "> 50 µg/mL"]
]}

Turning now to a further record.
Reported IC50 (µg/mL), pseudovirus neutralization ( PGT-125 (antibody, V domains shown) VH: QSQLQESGPRLVEASETLSLTCNVSGESTGACTYFWGWVRQAPGKGLEWIGSLSHCQSFWGSGWTFHNPSLKSRLTISLDTPKNQVFLKLTSLTAADTATYYCARFDGEVLVYNHWPKPAWVDLWGRGIPVTVSS VL: QSALTQPPSASGSPGQSITISCNGTATNFVSWYQQFPDKAPKLIIFGVDKRPPGVPDRFSGSRSGTTASLTVSRLQTDDEAVYYCGSLVGNWDVIFGGGTTLTVL ) = 0.144 µg/mL
